Here is a set of compounds with reported IC50 for Serine/threonine-protein kinase mTOR (Homo sapiens), compiled from the literature.

COc1ccccc1Sc1nccc(-c2ccc3nc(NC(C)=O)sc3c2)n1: > 6000 nM
CNc1ncc2c(-c3ccc(N4CCN(C(=O)C(C)(C)C)CC4)nc3)nn(Cc3cn(Cc4ccccc4)nn3)c2n1: > 10000 nM
Nc1ncnc2c1c(-c1cnc3ccccc3c1)nn2CCCCC(=O)NO: 677 nM
O=C(Nc1ccc(-c2nc(C3=CCOCC3)c3cnn(CC(F)(F)F)c3n2)cc1)Nc1cccnc1: 2.4 nM
O=c1cc(N2CCOCC2)nc(Cc2nc3ccc(F)cc3o2)[nH]1: > 10000 nM

The compound Cc1nc(N)cc2c1cc(-c1cnc3[nH]cnc3c1)c(=O)n2C1CCCC1 on Serine/threonine-protein kinase mTOR (Homo sapiens): IC50 was 13.9 nM

Considering COCCCNC(=O)c1cn2cc(-c3cnc(N)nc3)nc(N3CCOCC3)c2n1 , its IC50 with Serine/threonine-protein kinase mTOR (Homo sapiens) was recorded as > 5000 nM

Form field IC50 for item CC(=O)Nc1cc(-c2c(Nc3cc[nH]n3)nc3cccnn23)nc(C)n1 on Serine/threonine-protein kinase mTOR (Homo sapiens): 3 nM

----------
Here we gather IC50 data for Serine/threonine-protein kinase mTOR (Homo sapiens, UniProt P42345) reported by several publications.
Reply with just the number (in µM).

Look over these answered cases.
COc1ncccc1-c1ccc2nc(Nc3ccn[nH]3)c(-c3nc(C)nc(N)n3)n2c1: 0.039
C/C(=N\NC(=O)c1cccc(Br)c1)c1ccc(C(=O)Nc2cc[nH]n2)cc1: 1.29
O=C(O)c1ccc2occ(/C=N/Nc3nc(N4CCOCC4)c4ccsc4n3)c(=O)c2c1: 0.16

Entry C/C(=N\NC(=O)c1ccc(C)c(I)c1)c1ccc(N)cc1 under Serine/threonine-protein kinase mTOR (Homo sapiens, UniProt P42345) had IC50 of 5.08

----------
Recorded pIC50 for molecules tested on Serine/threonine-protein kinase mTOR (Homo sapiens, UniProt P42345), drawn from a number of studies.
pIC50 (log units): -log10 of the concentration in mol/L.

NS(=O)(=O)c1ccc(Nc2nccc(-c3cccc(C(=O)N4CCCCC4)c3)n2)cc1: 6.05
C/C(=N\NC(=O)c1ccc(C)c(Br)c1)c1ccncc1: 5.28
CN(C)[C@H]1C[C@@H](C(N)=O)N(C(=O)c2ccc(NC(=O)Nc3ccc(-c4nc(N5CCOCC5)nc(N5CCOCC5)n4)cc3)cc2)C1: 8.51

Recorded pIC50 (molecule CN(C)C1CCN(C(=O)c2ccc(NC(=O)Nc3ccc(-c4cc(N5CCOCC5)nc(N5CCOCC5)n4)cc3)cc2)CC1 ): 8.21

Consider C[C@@H]1Cn2ncc(C3CCN(S(C)(=O)=O)CC3)c2CN1c1cc(Cl)nc2[nH]ccc12 . Its measured pIC50 is 5.36

The reported pIC50 of the molecule Cc1nc(N)cc(-c2c(Nc3cc[nH]n3)nc3ccccn23)n1 was 7.19

For record COc1ncc(-c2ccc3nc(N)nc(-c4ccncc4)c3c2)cc1NS(=O)(=O)c1ccc(F)cc1F the listed pIC50 is 9.54

Field pIC50 (entry NC(=O)[C@@H]1CC(O)CN1C(=O)c1ccc(NC(=O)Nc2ccc(-c3nc(N4CCOCC4)nc(N4CCOCC4)n3)cc2)cc1 (some centres not stated) ) reads 8.66

Entry CC(=O)Nc1nc2ccc(-c3ccnc(OCCCc4cccnc4)n3)cc2s1 ; pIC50 = 6.04
